SUBJECT_OF_TEST: CRTH2 (KB8 cells) (Homo sapiens)
Construct: host or cells: KB8 cells (human CRTH2 expression cell)
ASSAY_TEXT: CRTH2 antagonist test (PGD2-induced intracellular calcium ion concentration increase in KB8 cells)
Assay type: cell-based
REPORTED_CONDITIONS: PGD2 final concentration 100 nM, Fluo-4-AM fluorescence, read-out: antagonist activity (IC50 value, inhibition of calcium ion concentration increase)
pIC50: −log10 of the molar value. Where a name gives a salt, the structure may show the parent alone.
Item-by-item account of pIC50

Guide cases for pIC50, answers given:
| COMPOUND | pIC50 |
| --- | --- |
| COc1cccc(CCNC(=O)c2ccc(Cc3ncc(CC(=O)O)c4ccccc34)cc2)c1 [Example 197] | 6.30 to 7.30 |
| O=C(O)Cc1cnc(C(=O)c2ccc(CNCc3ccc(Cl)cc3)cc2)c2ccccc12 [Example 147, hydrochloride] | ≤ 6.00 |
| O=C(O)Cc1cnc(C(=O)c2ccc(NC(=O)c3ccc(F)c(Cl)c3)cc2)c2ccccc12 [Example 34] | > 7.30 |
| O=C(O)Cc1cnc(C(=O)c2ccc(NC(=O)c3cc4cc(F)ccc4[nH]3)cc2)c2ccccc12 [Example 122] | > 7.30 |
| O=C(O)Cc1cnc(Cc2ccc(C(=O)NCCc3ccc(-c4ccccc4)cc3)cc2)c2ccccc12 [Example 194] | > 7.30 |

Value of pIC50 reported for the compound N#Cc1ccc(C(=O)Nc2ccc(C(=O)c3ncc(CC(=O)O)c4ccccc34)cc2)cc1 [Example 13] is ≤ 6.00

Value of pIC50 reported for the compound Cc1ccc(CCNC(=O)c2ccc(Cc3ncc(CC(=O)O)c4ccccc34)cc2)cc1 [Example 165] is > 7.30

###

SUBJECT_OF_TEST: CRTH2 (KB8 cells) (Homo sapiens, UniProt Q9Y5Y4)
Construct: host or cells: KB8 cells (human CRTH2 expression cell)
Sequence (Q9Y5Y4 1-395): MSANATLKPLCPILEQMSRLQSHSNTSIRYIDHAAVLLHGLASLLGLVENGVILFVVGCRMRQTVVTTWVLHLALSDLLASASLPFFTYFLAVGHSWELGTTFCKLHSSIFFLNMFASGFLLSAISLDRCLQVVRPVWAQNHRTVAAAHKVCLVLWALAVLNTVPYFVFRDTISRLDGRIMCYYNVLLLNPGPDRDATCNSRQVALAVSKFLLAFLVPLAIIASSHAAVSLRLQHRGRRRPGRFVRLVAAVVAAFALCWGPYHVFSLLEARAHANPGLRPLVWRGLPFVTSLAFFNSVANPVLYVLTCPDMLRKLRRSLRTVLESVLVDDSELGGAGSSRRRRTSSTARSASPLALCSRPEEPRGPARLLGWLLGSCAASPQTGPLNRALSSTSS
ASSAY_TEXT: CRTH2 antagonist test (PGD2-induced intracellular calcium ion concentration increase in KB8 cells)
Type: cell-based
REPORTED_CONDITIONS: PGD2 final concentration 100 nM, Fluo-4-AM fluorescence, read-out: antagonist activity (IC50 value, inhibition of calcium ion concentration increase)
MEASURE: IC50

Guide cases for IC50, answers given:
| SMILES_ENTRY | IC50 |
| --- | --- |
| O=C(O)Cc1cnc(C(=O)c2ccc(OCCc3ccc(Cl)cc3)cc2)c2ccccc12 | 50 to 500 nM |
| O=C(O)Cc1cnc(Cc2ccc(C(=O)NCCC3CCCCC3)cc2)c2ccccc12 | < 50 nM |
| O=C(O)Cc1cnc(Cc2ccc(C(=O)NCCc3ccc([N+](=O)[O-])cc3)cc2)c2ccccc12 | 50 to 500 nM |
| O=C(O)Cc1cnc(Cc2ccc(C(=O)NCCc3cc(F)ccc3Cl)cc2)c2ccccc12 | < 50 nM |
| COc1ccc(CCNC(=O)c2ccc(Cc3ncc(CC(=O)O)c4ccccc34)cc2)cc1C | 50 to 500 nM |

Value of IC50 reported for the compound `O=C(O)Cc1cnc(C(=O)c2ccc(NC(=O)c3cccc4ccccc34)cc2)c2ccccc12` is 50 to 500 nM

Value of IC50 reported for the compound `CC(C)(C)OC(=O)Nc1ccc(C(=O)c2ncc(CC(=O)O)c3ccccc23)cc1` is 50 to 500 nM

Where do the numbers come from? From patent US8461329B2.
